System: Acinetobacter baumannii
Test: Antibacterial activity against Acinetobacter baumannii ATCC 17978 assessed as bacterial growth inhibition incubated for 18 hrs by micro-dilution broth method
Format: functional
Measure: MIC (µg/mL)
Give bare numbers, in µg/mL.

# annotated cases, reported MIC shown
Entry smiles: N=C(N)NCCCCCCCCN(CCCCCCCCNC(=N)N)C(=O)N(CCCCCCCCNC(=N)N)CCCCCCCCNC(=N)NCC1CC1.O=C(O)C(F)(F)F
MIC (µg/mL): 8

Entry smiles: NCCCCCCCCN(CCCCCCCCN)C(=O)N(CCCCCCCCN)CCCCCCCCN
MIC (µg/mL): 16

Entry smiles: N=C(NCCCCCCCCNC(N)=O)NCC1CC1.O=C(O)C(F)(F)F
MIC (µg/mL): 16

Entry smiles: CCCCCCCCN(CCCCCCCCNC(=N)NCC1CC1)C(=O)N(CCCCCCNC(=N)NCC1CC1)CCCCCCNC(=N)NCC1CC1
MIC (µg/mL): 16

Then there is this compound:
Would you mind telling me what MIC value was observed for "CCCCCCCCN(CCCCCCNC(=N)NCC1CC1)C(=O)N(CCCCCCCCNC(=N)NCC1CC1)CCCCCCCCNC(=N)NCC1CC1" ? 4

* * *

Assay: Hemolytic activity against human RBC at 16 ug/ml incubated for 30 mins relative to control
Type: toxicity, cell-based, Erythrocyte
Settings: human red blood cells (erythrocytes), at 16 µg/mL, read-out: Activity
Measure: hemolysis at 0.5 h, 16 ug/ml (%)
Give bare numbers, in %.

Entry smiles: N=C(N)NCCCCCCCCN(CCCCCCCCNC(=N)NCC1CC1)C(=O)N(CCCCCCCCNC(=N)NCC1CC1)CCCCCCCCNC(=N)NCC1CC1.O=C(O)C(F)(F)F
Unit abbreviation: %
hemolysis at 0.5 h, 16 ug/ml: 1.1

Field: hemolysis at 0.5 h, 16 ug/ml. Fill in for each record below.
1. N=C(NCCCCCCCCNC(N)=O)NCC1CC1.O=C(O)C(F)(F)F
2. CCCCCCCCN(CCCCCCCCNC(=N)NCC1CC1)C(=O)N(CCCCCCNC(=N)NCC1CC1)CCCCCCNC(=N)NCC1CC1
3. N=C(N)NCCCCCCCCN(CCCCCCCCN)C(=O)N(CCCCCCCCN)CCCCCCCCNC(=N)N.O=C(O)C(F)(F)F
4. N=C(N)NCCCCCCCCN(CCCCCCCCNC(=N)NCC1CC1)C(=O)N(CCCCCCCCNC(=N)N)CCCCCCCCNC(=N)NCC1CC1

1: 0; 2: 2.4; 3: 0.6; 4: 1.2

* * *

Assay: Hemolytic activity against human RBC at 2 ug/ml incubated for 30 mins (reference value: 0%)
Assay type: toxicity, cell-based, Erythrocyte
Conditions: human red blood cells (erythrocytes), at 2 µg/mL, read-out: Activity
Give hemolysis at 0.5 h, 2 ug/ml for every item shown.
Numbers only, in %.

Entry smiles: N=C(N)NCCCCCCCCN(CCCCCCCCNC(=N)NCC1CC1)C(=O)N(CCCCCCCCNC(=N)N)CCCCCCCCNC(=N)NCC1CC1
Unit abbreviation: %
hemolysis at 0.5 h, 2 ug/ml: 0.2

State the recorded hemolysis at 0.5 h, 2 ug/ml for every item in the following list.
1. CCCCCCCCN(CCCCCCCCNC(=N)NCC1CC1)C(=O)N(CCCCCCNC(=N)NCC1CC1)CCCCCCNC(=N)NCC1CC1
2. N=C(NCCCCCCCCNC(N)=O)NCC1CC1.O=C(O)C(F)(F)F
3. N=C(N)NCCCCCCCCN(CCCCCCCCNC(=N)NCC1CC1)C(=O)N(CCCCCCCCNC(=N)NCC1CC1)CCCCCCCCNC(=N)NCC1CC1.O=C(O)C(F)(F)F

1: 0; 2: 0; 3: 0

Would you kindly share the measured hemolysis at 0.5 h, 2 ug/ml for "N=C(N)NCCCCCCCCN(CCCCCCCCN)C(=O)N(CCCCCCCCN)CCCCCCCCNC(=N)N.O=C(O)C(F)(F)F" ? 0

* * *

Tested on: Cell membrane
Test: Disruption of membrane integrity in Escherichia coli MG1655 assessed as increase in PI uptake at 16 ug/ml measured every 15 mins for 6 hrs by SYTO9/PI staining based fluorometric analysis
Details: dose 16.0 µg/ml
Active and inactive are the calls of the source. The calls are words filed in the database; no cut-off is given here.
Measure: Activity

Worked set:
Entry smiles: N=C(N)NCCCCCCCCN(CCCCCCCCN)C(=O)N(CCCCCCCCN)CCCCCCCCNC(=N)N.O=C(O)C(F)(F)F
Measure: Activity
Obs value: Active

Entry smiles: N=C(N)NCCCCCCCCN(CCCCCCCCNC(=N)NCC1CC1)C(=O)N(CCCCCCCCNC(=N)NCC1CC1)CCCCCCCCNC(=N)NCC1CC1.O=C(O)C(F)(F)F
Measure: Activity
Obs value: Active

Entry smiles: CCCCCCCCN(CCCCCCCCNC(=N)NCC1CC1)C(=O)N(CCCCCCNC(=N)NCC1CC1)CCCCCCNC(=N)NCC1CC1
Measure: Activity
Obs value: Active

Entry smiles: N=C(NCCCCCCCCNC(N)=O)NCC1CC1.O=C(O)C(F)(F)F
Measure: Activity
Obs value: Active

Please turn your attention to the following entry.
Enter reported Activity observed with Cell membrane for "N=C(N)NCCCCCCCCN(CCCCCCCCNC(=N)NCC1CC1)C(=O)N(CCCCCCCCNC(=N)N)CCCCCCCCNC(=N)NCC1CC1" Active

* * *

System: Escherichia coli
Assay: Antibacterial activity against Escherichia coli CCUG assessed as bacterial growth inhibition incubated for 18 hrs by micro-dilution broth method
Format: functional
Measure: MIC (µg/mL)
Numbers only, in µg/mL.

Here are 3 compounds together with their reported answers.
Entry smiles: N=C(N)NCCCCCCCCN(CCCCCCCCN)C(=O)N(CCCCCCCCN)CCCCCCCCNC(=N)N.O=C(O)C(F)(F)F
Experimental target: Escherichia coli
Measure: MIC
Obs value: 2
//
Entry smiles: N=C(N)NCCCCCCCCN(CCCCCCCCN)C(=O)N(CCCCCCCCNC(=N)N)CCCCCCCCNC(=N)N
Experimental target: Escherichia coli
Measure: MIC
Obs value: 2
//
Entry smiles: CCCCCCCCN(CCCCCCCCNC(=N)NCC1CC1)C(=O)N(CCCCCCCCNC(=N)NCC1CC1)CCCCCCCCNC(=N)NCC1CC1
Experimental target: Escherichia coli
Measure: MIC
Obs value: 4

Would you mind listing MIC for each of the following compounds?
1. CCCCCCCCN(CCCCCCCCNC(=N)NCC1CC1)C(=O)N(CCCCCCNC(=N)NCC1CC1)CCCCCCNC(=N)NCC1CC1
2. N=C(N)NCCCCCCCCN(CCCCCCCCNC(=N)NCC1CC1)C(=O)N(CCCCCCCCNC(=N)NCC1CC1)CCCCCCCCNC(=N)NCC1CC1.O=C(O)C(F)(F)F
3. N=C(NCCCCCCCCNC(=O)NCCCCCCCCNC(=N)NCC1CC1)NCC1CC1

1: 4; 2: 0.5; 3: 64

* * *

Test system: Acinetobacter baumannii
Experiment: Antibacterial activity against Acinetobacter baumannii ATCC 17978 assessed as bacterial growth inhibition incubated for 18 hrs by micro-dilution broth method
Type: functional
Measure: MIC (µg/mL)
Give bare numbers, in µg/mL.

Worked cases, MIC given:
Entry smiles: N=C(NCCCCCCCCN(CCCCCCCCNC(=N)NCC1CC1)C(N)=O)NCC1CC1.O=C(O)C(F)(F)F
Unit abbreviation: µg/mL
MIC: 128
//
Entry smiles: N=C(N)NCCCCCCCCN(CCCCCCCCN)C(=O)N(CCCCCCCCN)CCCCCCCCNC(=N)N.O=C(O)C(F)(F)F
Unit abbreviation: µg/mL
MIC: 16
//
Entry smiles: N=C(N)NCCCCCCCCN(CCCCCCCCNC(=N)N)C(=O)N(CCCCCCCCN)CCCCCCCCN
Unit abbreviation: µg/mL
MIC: 16
//
Entry smiles: CCCCCCCCN(CCCCCCCC)C(=O)N(CCCCCCCCNC(=N)NCC1CC1)CCCCCCCCNC(=N)NCC1CC1.O=C(O)C(F)(F)F
Unit abbreviation: µg/mL
MIC: 128
//
Entry smiles: N=C(N)NCCCCCCCCN(CCCCCCCCNC(=N)NCC1CC1)C(=O)N(CCCCCCCCNC(=N)NCC1CC1)CCCCCCCCNC(=N)NCC1CC1.O=C(O)C(F)(F)F
Unit abbreviation: µg/mL
MIC: 4

For every record below, what is its MIC?
1. N=C(N)NCCCCCCCCN(CCCCCCCCN)C(=O)N(CCCCCCCCN)CCCCCCCCN
2. CCCCCCN(CCCCCCNC(=N)NCC1CC1)C(=O)N(CCCCCCCCNC(=N)NCC1CC1)CCCCCCNC(=N)NCC1CC1
3. N=C(N)NCCCCCCCCN(CCCCCCCCN)C(=O)N(CCCCCCCCNC(=N)N)CCCCCCCCNC(=N)N

1. 64
2. 32
3. 16

* * *

Experiment: Apparent permeability of the compound across bacterial inner membrane mimic PC-phospholipids in PBS buffer at pH 7.4 incubated for 5 hrs in presence of {8-[N'(cyclopropylmethyl)carbamimidamido]octyl}urea trifluoroacetate salt by PAMPA based UV-Vis spectrophotometric analysis
Measure: Papp at 5 h (×10⁻⁶ cm/s)
Numbers only, in ×10⁻⁶ cm/s.

Name the reported Papp at 5 h value associated with the compound "O=C(N[C@H](CO)[C@H](O)c1ccc([N+](=O)[O-])cc1)C(Cl)Cl" 0.04
